The reported measurements were obtained from PubChem BioAssay (NCI).

# System: SF-268 CNS
# TEST_PROTOCOL: NCI-60 one-dose screen, 48 h
# RUN_CONDITIONS: 10 µM unless noted
Compounds without any hit were thinned out: in the full panel of roughly 83,000, 20% have a hit. Calls of active or inactive are those of the source. The calls were made as follows: active = growth percent below 10; inactive = the rest.
# output must be one of Y = active, N = inactive

q: For this compound, state the assay outcome: "Oc1cccc(CNC2CCCCC2)c1"
a: N

q: What call does the record list for "CC(=O)Nc1ccc(/C=C2\SC(=S)N(/C=C(\C(C)=O)C(N)=O)C2=O)cc1" ?
a: N

q: Given "CC(=O)N(C)N=Nc1ccc(C)cc1" , state the outcome it received in this test.
a: N

q: # lookup: test call for "Cc1ccc(S(=O)(=O)NC(=O)NCCSSCCNC(=O)NS(=O)(=O)c2ccc(C)cc2)cc1"
a: N

q: Given "CCN(Cc1ccc(Cl)c(Cl)c1)c1ccc2nc(N)nc(N)c2c1C" , state the outcome it received in this test.
a: Y

q: What outcome does the record of this test show for O=C1C=C(c2ccccc2)C(O)(c2ccccc2)C1 (stereo not drawn) ?
a: N

q: Which result was noted for this compound in the test: "COc1cc(-c2ccc(NC(=O)CC(C)=O)c(OC)c2)ccc1NC(=O)CC(C)=O"
a: N

q: Write down the call the test reported for this compound. Item: "Cc1cc(Nc2ccc3c(c2)OCO3)c2cc3c(cc2n1)OCO3"
a: N

q: Per the records of this test, what outcome belongs to "O=C(c1cccc(C(=O)c2ccc3c4c(cccc24)C(=O)N(c2ccccc2)C3=O)c1)c1ccc2c3c(cccc13)C(=O)N(c1ccccc1)C2=O" ?
a: N

q: Hey, what did the test say about "CS(=O)(=O)c1ccc(/C=C\C(=O)O)cc1" ?
a: N

q: Which result was noted for this compound in the test: "C(=C\c1ccncc1)/c1ccncc1"
a: N

q: What is the recorded call for this compound in the test? "C=C1SC(=Nc2c(C)cccc2C)N(c2nc(Cl)nc(Cl)n2)C12CCCCC2"
a: N

q: Outcome logged for "CCCC(=O)CC(=O)c1ccccc1" in this assay:
a: N

###

# Tested on: SK-OV-3 ovarian
# TEST_PROTOCOL: NCI-60 one-dose screen, 48 h (100 = growth as untreated, 0 = no growth, -100 = all killed)
# RUN_CONDITIONS: 10 µM unless noted
About 83,000 compounds went through this panel and 20% of them were active in at least one assay; those are over-represented in the sample as a whole. Active and inactive are the calls of the source. Rule for the calls: active = growth percent below 10; inactive = the rest.
VALUE_TYPE: growth

Short answer for "O=C(O)CC1=CCCCC1" : growth was 117% (inactive)

So for "CCCCCCCCCCCCCCCCCCSC(=N)N" , the logged growth turned out to be 83.3% (inactive)

compound C=CC(C)C(C)(C)O (stereo not given) , growth observed: 106% (inactive)

compound "CCOC(=O)CSCCC#N" , growth observed: 92.5% (inactive)

"C=CCN1CCCC1=O" has a reported growth of 92.9% (inactive)

###

Assignment: determine reported growth for the given compounds.
# Test system: OVCAR-4 ovarian
# TEST_PROTOCOL: NCI-60 one-dose screen, 48 h (100 = growth as untreated, 0 = no growth, -100 = all killed)
# RUN_CONDITIONS: 10 µM unless noted
The panel holds about 83,000 compounds, 20% with a hit somewhere; the sample as a whole holds those more often. The source made the active and inactive calls. The calls were made as follows: active = growth percent below 10; inactive = the rest.

response.value for "Cc1ccc2nc(-c3ccc(N=Cc4ccccc4O)cc3)sc2c1" (field: growth) = 78.6% (inactive)

For "Cc1cc(=O)n(Nc2ccccc2)c(O)c1C#N" the compound record lists growth as 108% (inactive)

growth recorded for this compound, "Oc1ccc(N=Cc2ccc(OCc3ccccc3)cc2)cc1" , is 95.2% (inactive)

Record summary for "C=CC(C)(C)n1cc(C2=C(O)C(=O)C(c3cn(C(C)(C)C=C)c4ccccc34)=C(O)C2=O)c2ccccc21" : reported growth = 92.4% (inactive)

Record C=COC(=O)CCOCC(CC)CCCC (centres undefined) , field growth: 96.2% (inactive)

Looking up ClCC(Cl)[C@@H]1CC2C=CC1C2 (some centres undefined) , I found its growth recorded as 104% (inactive)

Measured growth, "CCCC(=O)c1cccs1" : 103% (inactive)

Record "CCOC(C=O)OCC" . Reported growth: 114% (inactive)

# compound "CC(CCC#N)(CCC#N)C(=O)c1ccccc1" ; its growth = 90% (inactive)

Briefly, growth measured for "O=C(OC1CCCC1)c1ccccc1Cl" : 107% (inactive)

Recorded growth (compound "COc1ccc(Br)c(C=O)c1" ): 88.5% (inactive)

compound "CCCCCCCCCCCCCCCCCCSC(=N)N" , growth observed: 76.1% (inactive)

Given item OCC(O)COc1ccc(Cl)cc1Cl (centres undefined) , the value recorded as its growth is 101% (inactive)

Quick note, growth for "CS(=O)(=O)c1ccc(/C=C\C(=O)O)cc1" landed at 98.2% (inactive)

Form: compound = "O=C(NCCc1ccccc1)/C(=C\c1ccc(Cl)cc1Cl)NC(=O)c1ccccc1" ; growth = 98.7% (inactive)

Measured growth of "Clc1cccc(Cl)c1CSc1nc2ccccc2n2cccc12" : 70.4% (inactive)

The reported growth of the compound "CCCOCc1cn[nH]n1" was 110% (inactive)

Looking up CCC12OC(COc3ccccc3)CN1CCN2c1ccccc1 (centres undefined) , I see its growth listed as 95.5% [100 µM] (inactive)

Looking up CCCC1OC(c2ccco2)OCC1CC (centres undefined) , I found its growth recorded as 115% (inactive)

# growth of "CC(=O)N(C)N=Nc1ccc(C)cc1" = 102% (inactive)

Reported growth of "CCOC(=O)c1c[nH][nH]c1=O" : 101% (inactive)

Just so you know, measured growth for "Cc1cccc2ccccc12" came out at 108% (inactive)

Entry "O=C(O)Cc1ccccn1" ; growth = 117% (inactive)

The compound listed as "O=S(=O)(O)c1cccnc1" has a reported growth of 114% (inactive)

###

# Tested on: M14 melanoma
# TEST_PROTOCOL: NCI-60 one-dose screen, 48 h (100 = growth as untreated, 0 = no growth, -100 = all killed)
# RUN_CONDITIONS: 10 µM unless noted
# Procedure: Growth inhibition of the M14 human tumor cell line is measured as a screen for anti-cancer activity. Cells are grown in 96 well plates and exposed to the test compound for 48 hours. Compounds are tested at a single concentration, which is 10^-5 M for most compounds. The reported endpoint is percent growth (GI% or GIPRCNT), where numbers from 0 - 100% represent growth inhibition, and numbers from -100% - 0 represent cell death. For example, a value of 40 represents 60% growth inhibition. […]
This is part of a sample that, as a whole, favours compounds with a hit. Of some 83,000 tested, about 20% had one in any assay.
VALUE_TYPE: growth (%)
Write down the numeric answer in % and omit the unit.

// field: growth; key: NCC(O)C(O)C(O)C(O)CO (stereo not drawn) ; value = 93.9

Per the record, CC12CCC3c4ccc(O)cc4CCC3C1CCC2=O (stereo not drawn) has growth of 102

Consider "Oc1ccc2ccccc2c1CN1CCOCC1" . Its measured growth is 98

###

# System: UO-31 renal
# TEST_PROTOCOL: NCI-60 one-dose screen, 48 h (100 = growth as untreated, 0 = no growth, -100 = all killed)
# RUN_CONDITIONS: 10 µM unless noted
This is part of a sample that, as a whole, favours compounds with a hit. Of some 83,000 tested, about 20% had one in any assay.
VALUE_TYPE: growth (%)
Field format: number, assumed %, no unit text.

Observed growth on UO-31 renal, entry C=COC(=O)CCOCC(CC)CCCC (stereo unspecified) , equals 79.5

growth for UO-31 renal with input "S=CN1CCCCC1" equals 89.1

For the compound "NC(=O)N1CCOCC1" , the measured growth on UO-31 renal was 79.8

Test item "CCOC(=O)c1cc(Cl)c(O)c(Cl)c1" ; UO-31 renal; reported growth was 92.3

Known value: UO-31 renal growth of the compound "O=C(O)CC1=CCCCC1" equals 89.1

Form field growth for item O=S(Cc1ccccc1)/C(=C/NC(=S)Nc1ccccc1)c1ccccc1 (stereo unspecified) on UO-31 renal: 81.7

###

# Tested on: SNB-75 CNS
# TEST_PROTOCOL: NCI-60 one-dose screen, 48 h (100 = growth as untreated, 0 = no growth, -100 = all killed)
# RUN_CONDITIONS: 10 µM unless noted
# Protocol: Growth inhibition of the SNB-75 human tumor cell line is measured as a screen for anti-cancer activity. Cells are grown in 96 well plates and exposed to the test compound for 48 hours. Compounds are tested at a single concentration, which is 10^-5 M for most compounds. The reported endpoint is percent growth (GI% or GIPRCNT), where numbers from 0 - 100% represent growth inhibition, and numbers from -100% - 0 represent cell death. For example, a value of 40 represents 60% growth inhibition. […]
Compounds without any hit were thinned out: in the full panel of roughly 83,000, 20% have a hit. Activity calls are given as the source filed them. The calls were made as follows: active = growth percent below 10; inactive = the rest.
VALUE_TYPE: growth

Known value: SNB-75 CNS growth of the molecule "COc1ccc(Nc2cc(Cl)ccc2C(=O)O)cn1" equals 99.4% (inactive)

Bench note, SNB-75 CNS: "CC(C)N(CCCC#N)C(C)C" , growth reads 85.2% (inactive)

Considering "Oc1cc2ccccc2c(-c2c(O)c(O)cc3ccccc23)c1O" , its growth with SNB-75 CNS was recorded as 41.5% (inactive)

Item: "Oc1cc(O)c2c(c1)O[C@H](c1ccc(O)c(O)c1)[C@@H](O)C2" | System: SNB-75 CNS | growth: 83.6% (inactive)

Known value: SNB-75 CNS growth of the molecule "CCOC(=N)CC(=O)Nc1cccc(C)c1Cl" equals 86% (inactive)

Hey, SNB-75 CNS data for "O=C1Nc2ccccc2/C1=C\c1ccccc1O" : growth came out at 64.9% (inactive)

Summary line: "O=c1[nH]c(=O)c2cc(Cl)cc(Cl)c2[nH]1" , SNB-75 CNS, reported growth = 68.2% (inactive)

Measured growth for this entry "N#Cc1ccc(OC(=O)Nc2c(Cl)cc(Cl)cc2Cl)cc1" on SNB-75 CNS: 127% (inactive)

The reported SNB-75 CNS growth of "CSc1nsc(N)n1" is 87.4% (inactive)

Log: SNB-75 CNS, molecule "Cc1ccc2[nH]c3ccccc3c2c1" , growth = 98.4% (inactive)

Lab entry: SNB-75 CNS assay, molecule Cc1cccnc1NC1OC(=O)c2ccccc21 (stereo not given) , growth = 96.5% (inactive)

Form field, growth with SNB-75 CNS, item "O=C(CCCl)OCCOc1ccccc1" : 96.1% (inactive)

Entry "Nc1cc(N)ncn1" , SNB-75 CNS data, growth value: 88.9% (inactive)

// returns growth for "CCOC(=O)C(CCC#N)(CCC#N)C(=O)OCC" with SNB-75 CNS; value = 80.9% (inactive)

The recorded growth with SNB-75 CNS for "COc1ccc(C)cc1NC(=O)SC(C)C" was 82.4% [100 µM] (inactive)

// molecule "O=C(OCc1ccccc1)n1nnc2ccccc21" , assay SNB-75 CNS, growth value: 90.2% (inactive)

GET /values?item= "Cn1c(=O)[nH]c2ccccc2c1=O" &system= SNB-75 CNS returns growth: 91% (inactive)

Lab entry: SNB-75 CNS assay, molecule "CC(=O)NCNC(C)=O" , growth = 92.4% (inactive)

Measured growth (SNB-75 CNS), entry "CCC(/C=C\C(C)=O)CC" : 99% (inactive)

Known value: SNB-75 CNS growth of the molecule "CCCCCC(=O)OCCC1CCCCC1" equals 89.1% (inactive)
